Tested on: shed/soluble BCMA
Experiment: GSI inhibition of shed/soluble BCMA (sBCMA), ELISA of supernatants after 72 hours, NCI-H929, MM1S, U266B1 (Example 2, Table 30, FIG. 3)
Format: cell-based, human
Details: Homo sapiens, MM1.S; MM1S cells, 72 hours, ELISA of supernatants
Quick rule for you: EC50 under 0.1 µM gets y, anything else gets n.

Example results:
O=S(=O)(N[C@@H](CO)C(C(F)(F)F)C(F)(F)F)c1ccc(Cl)s1 [PF-5212362]	n
C[C@H](c1ccc(F)cc1CCCC(=O)O)N(c1cc(F)ccc1F)S(=O)(=O)c1ccc(Cl)cc1 [BMS-299897]	n

In: Please check: EC50 for CC(C)(C(=O)NCC(F)(F)C(F)(F)F)C(=O)N[C@@H]1C(=O)Nc2ccccc2-c2ccccc21 [RO4929097] , strictly under 0.1 µM or not?
Out: y

In: Please check: EC50 for C[C@H](NC(=O)Cc1cc(F)cc(F)c1)C(=O)N[C@H](C(=O)OC(C)(C)C)c1ccccc1 [DAPT] , strictly under 0.1 µM or not?
Out: n

In: Please check: EC50 for CC(C)[C@H](O)C(=O)N[C@@H](C)C(=O)N[C@@H]1C(=O)N(C)CCc2ccccc21 [LY-450139] , strictly under 0.1 µM or not?
Out: y

In: Please check: EC50 for C[C@H](NC(=O)[C@@H](O)c1cc(F)cc(F)c1)C(=O)N[C@@H]1C(=O)N(C)c2ccccc2-c2ccccc21 [LY-411575] , strictly under 0.1 µM or not?
Out: y

In: Please check: EC50 for O=C(O)CC[C@H]1CC[C@@](c2cc(F)ccc2F)(S(=O)(=O)c2ccc(Cl)cc2)CC1 [MK-0752] , strictly under 0.1 µM or not?
Out: n

In: Please check: EC50 for NC(=O)[C@@H](CCC(F)(F)F)N(Cc1ccc(-c2ncon2)cc1F)S(=O)(=O)c1ccc(Cl)cc1 [BMS-708163] , strictly under 0.1 µM or not?
Out: y

In: Please check: EC50 for CCC[C@H](N[C@H]1CCc2cc(F)cc(F)c2C1)C(=O)Nc1cn(C(C)(C)CNCC(C)(C)C)cn1 [PF-3084014] , strictly under 0.1 µM or not?
Out: y

* * *

The following compounds are listed with their measured EC50 values.
System: membrane BCMA expression
Assay: GSI enhancement of membrane BCMA (mBCMA) expression, flow cytometry after 72 hours, NCI-H929, MM1S, U266B1 (Example 2, Table 30, FIG. 3)
Assay type: cell-based
Details: Homo sapiens, NCI-H929, H929 cells
Note: unit nM is implicit; provide only the numeric part.

C[C@H](NC(=O)Cc1cc(F)cc(F)c1)C(=O)N[C@H](C(=O)OC(C)(C)C)c1ccccc1	145

In: Field request: EC50 | item: `CCC[C@H](N[C@H]1CCc2cc(F)cc(F)c2C1)C(=O)Nc1cn(C(C)(C)CNCC(C)(C)C)cn1`
Out: 31.6

In: Field request: EC50 | item: `C[C@H](c1ccc(F)cc1CCCC(=O)O)N(c1cc(F)ccc1F)S(=O)(=O)c1ccc(Cl)cc1`
Out: 152

In: Field request: EC50 | item: `CC(C)[C@H](O)C(=O)N[C@@H](C)C(=O)N[C@@H]1C(=O)N(C)CCc2ccccc21`
Out: 54.8

In: Field request: EC50 | item: `CC(C)(C(=O)NCC(F)(F)C(F)(F)F)C(=O)N[C@@H]1C(=O)Nc2ccccc2-c2ccccc21`
Out: 4.4
